Test system: A2780 (ovarian carcinoma cell line)
measurement.protocol: Cytotoxicity test, IC50 determination by MTT test
Type: cell-based
cond: 24 hr incubation, 20000 cells/well, 10% serum, ethanol solutions; read-out: IC50 ± SD (MTT-Test), A2780
quantity.measured: IC50

>>> result("N.N.[Cl][Pt][Cl] [cis-Pt, reference compound]")
"30 µM"
>>> result("CCCCCCCCCCCCCCCCNCC(O)CCCCCCCCC (stereo not shown)")
"> 100 µM"
>>> result("CCCCCCCCCCCCNCC(O)CCCCCCCCC (stereo not shown)")
"4 µM"

Now for another entry.
Q. Name the recorded IC50 of the item CCCCCCCCCCCCCCNCC(O)CCCCCCCCC (stereo not shown) in your answer.
A. 9 µM

---

measurement.protocol: Solubility of compounds in DMSO, ethanol and Solutol-HS15 (20 mM stock solutions)
Type: physicochemical
cond: organic solvent or mixture; ethanol; 20 mM stock solutions; read-out: Solubility, Ethanol
Some molecules, each annotated with its measured solubility.

>>> result("CCCCCCCCCCCCCCCCC(O)CNCCCCCCCC (stereo not drawn) [Compound A4, 1-Octyl-amino-octadecan-2-ol]")
"< 20 mM"
>>> result("CCCCCCCCCCCCCCCCC(O)CNCCCC (stereo not drawn) [Compound A2, 1-Butyl-amino-octadecan-2-ol]")
"< 20 mM"
>>> result("CCCCCCCCCC(O)CNCCCCCC (stereo not drawn) [Compound A8, 1-Hexyl-amino-undecan-2-ol]")
"> 20 mM"
>>> result("CCCCCCCCCCCCCCCCC(O)CNCCCCCC (stereo not drawn) [Compound A3, 1-Hexyl-amino-octadecan-2-ol]")
"< 20 mM"

Q. Name the recorded solubility of the item CCCCCCCCCCCCCCCCC(O)CNCCCCCCCCCCCC (stereo not drawn) [Compound A5, 1-Dodecyl-amino-octadecan-2-ol] in your answer.
A. < 20 mM

Q. Name the recorded solubility of the item CCCCCCCCCCCCCCCCC(O)CN(CC)CC (stereo not drawn) [Compound A1, 1-DEA-amino-octadecan-2-ol] in your answer.
A. > 20 mM

---

Some compounds, each annotated with its measured IC50.
Test system: HT-29 (Human colon adenocarcinoma grade II)
measurement.protocol: Cytotoxicity test, IC50 determination by MTT test
Assay type: cell-based
cond: Homo sapiens, HT-29; 24 hr incubation, 20000 cells/well, 10% serum, solutol solutions; read-out: IC50 ± SD (MTT-Test), HT-29
I only need the number, in µM, no unit after it.

Answered examples (3):
>>> result("CCCCCCCCCCCCCCCCC(O)CNCCCCCCCC (centres unmarked)")
15
>>> result("CCCCCCCCCCCCCCCCC(O)CNCCCCCC (centres unmarked)")
19
>>> result("CCCCCCCCCCCCCCCCC(O)CNCCCC (centres unmarked)")
16

Now for another entry.
Q. Name the recorded IC50 of the item CCCCCCCCCCCCCCCCC(O)CN(CC)CC (centres unmarked) in your answer.
A. 24
